All values here come from PubChem BioAssay (NCI).

Tested on: SF-295 CNS
Protocol Text: NCI tumour cell line growth inhibition, 48 h
In this section, each of the compounds is paired with its reported TGI.

{"Compound": "COc1ccc(Nc2cnc3cc(N)cc(N)c3n2)cc1", "TGI": "48.7 µM"}
{"Compound": "COc1cc(-c2nccc3[nH]c(-c4ccc5cc[nH]c5c4)nc23)cc(OC)c1OC", "TGI": "< 0.01 µM"}
{"Compound": "CSC(=O)/C=C1\\SS/C(=C\\C(=O)SC)S1", "TGI": "13.7 µM"}
{"Compound": "Cn1c(CNc2ccc(-c3n[nH]c(=S)n3C)cc2)n[nH]c1=S", "TGI": "> 100 µM"}
{"Compound": "Cc1ccc(OCC2OC(n3cnc4c(Cl)nc(Nc5cc(Cl)cc(Cl)c5)nc43)CC2Oc2ccc(C)cc2)cc1 (centres undefined)", "TGI": "> 100 µM"}
{"Compound": "COc1ccc(OC)c2sc(N3C(=O)/C(=C/c4cccc(Oc5ccccc5)c4)N=C3c3ccccc3)nc12", "TGI": "> 100 µM"}
{"Compound": "N#Cc1ccc(Sc2nc3ccccc3[nH]2)cc1", "TGI": "> 100 µM"}
{"Compound": "COC(=O)[C@@]12OC[C@]34C([C@@H](O)C1O)[C@@]1(C)CC(=O)C(OC(=O)CC(C)C(F)(F)F)=C(C)C1C[C@H]3OC(=O)[C@H](O)[C@H]42 (some centres undefined)", "TGI": "42.5 µM"}
{"Compound": "CCCCCC/C=C\\CCCCCCCCC(=O)c1cccc(OC)c1OC", "TGI": "> 100 µM"}
{"Compound": "COCCN(CCOC)c1nc(-c2ccccc2)nc2ccccc12", "TGI": "> 100 µM"}
{"Compound": "CC(=O)c1ccc(N=NN2CCCC2)cc1", "TGI": "> 100 µM"}
{"Compound": "COc1cc(C(=O)/C=C/c2cccc(Nc3ccnc4cc(Cl)ccc34)c2)cc(OC)c1OC", "TGI": "3.03 µM"}
{"Compound": "COc1cc(/C=C/c2csnn2)cc(OC)c1OC", "TGI": "> 100 µM"}
{"Compound": "O=C(COc1ccc(/C=C2\\Oc3ccccc3C2=O)cc1)Nc1nc2ccccc2s1", "TGI": "> 75.3 µM"}
{"Compound": "Fc1ccc(NC(c2ccc(F)cc2)C2CCN(CCCCc3ccccc3)CC2)cc1 (centres undefined)", "TGI": "2.86 µM"}
{"Compound": "C=C(C#N)C(=O)OCC(CC)CC.C=C(C#N)C(=O)OCC(CC)CC.CS(C)=O.CS(C)=O.Nc1c(N=Nc2ccc(-c3ccc(N=Nc4cc(S(=O)(=O)[O-])c5ccccc5c4N)cc3)cc2)cc(S(=O)(=O)[O-])c2ccccc12.[Pt+2]", "TGI": "> 100 µM"}
{"Compound": "NC1=NC2(COC(c3ccccc3)(c3ccccc3)c3ccccc3)OC(COC(c3ccccc3)(c3ccccc3)c3ccccc3)C(O)C2O1 (centres undefined)", "TGI": "> 100 µM"}
{"Compound": "CCN(CC)CCNc1ccc([N+](=O)[O-])c2nc3ccc(OC)cc3c(NCCN(CC)CC)c12", "TGI": "2.6 µM"}
{"Compound": "Oc1ccc(C(=C(Br)c2ccccc2)c2ccc(O)cc2)cc1", "TGI": "25.6 µM"}
